Entries and their IC50 values follow.
# Test system: pseudotyped EBOV
# Assay Summary: microbe, parasite or virus in culture
# Format: cell-based, Zaire ebolavirus
# Run Parameters: read-out: EBOV (IC50)
Answer with the figure and its unit, nothing else.

# Compound, IC50
records = [
    ("CC1(C)CC(NC(=O)C(=O)Nc2cc(F)c(Cl)c(F)c2)CC(C)(C)N1 [DY-III-227]", "12.5 µM"),
]

[Q] Item: CC1(C)CC(NC(=O)C(=O)Nc2ccc(C(F)(F)F)c(F)c2)CC(C)(C)N1 [DY-III-226] Test system: pseudotyped EBOV Read-out: IC50 Value: ?
[A] 11.2 µM
